The measurements presented in this section are drawn from the RNAGym collection of RNA variant scans (doi:10.7554/elife.80360).

B1: HDV Ribozyme (parent)
chain: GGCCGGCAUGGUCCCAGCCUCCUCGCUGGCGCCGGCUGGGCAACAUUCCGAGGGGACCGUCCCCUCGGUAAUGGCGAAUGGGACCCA

Variants of: B1
Assay: self-cleavage, relative activity (ratio to wild type); higher = more cleavage; co-transcriptional
endpointLabel: self-cleavage
Give a plain numeric answer without units written out.

Tell me the measured self-cleavage of U12A U65G , please. 0

Also, C18U U46A please. 0.291

Please do the same for C62U U69G as well. 1.07

Check G2A C3G too. 0.123

What about this variant? G39A A77G 0.141

Then what about the variant G38C U79C ? 0.0264

What about this variant? G17C G28C 0.125

Param item: G6C G11A 0

Moving on to the next variant: G17U C22A 0.0831

Follow-up entry: G2U G28A 0.0164

# iterate: G55U C61A 1.09

Now this one: G38C C85U 0.185

Repeat for the following variant: G5U A77C 0.192

Same read-out for G17U G28A ? 0.188

Queued: U37G C48G 0.111

For C3A C85U then? 0.626
